Biological target: TNFα / TNFα receptor (TNFα R1/Fc) (Homo sapiens, UniProt P01375)
Construct: purchased R&D Systems
Sequence (P01375 77-233 limits assumed, species assumed): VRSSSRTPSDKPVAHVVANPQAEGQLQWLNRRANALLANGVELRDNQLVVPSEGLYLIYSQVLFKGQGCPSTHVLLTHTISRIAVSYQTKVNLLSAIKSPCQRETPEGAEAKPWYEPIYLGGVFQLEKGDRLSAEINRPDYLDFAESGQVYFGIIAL
Assay: Inhibition of binding of TNFα to the TNFα receptor (plate ELISA competition)
Conditions: Table 2; read-out: Activity (IC50, inhibition of TNFα binding to TNFα R1/Fc)
pIC50: −log10 of the molar value. Numbered stars: 1 amine (or outer) side, 2 acyl side, 3 side chain; on linkers, the order of the positions; unused ones are H or OH. Bridge positions count the residues as written; N and C are the ends. Square brackets hold non-standard residues; d marks the D form. Peptide text beside a SMILES is read from it. Tartaroyl(2R,3R-(OAc)2) = CC(=O)O[C@@H](C(=O)[*:1])[C@@H](OC(C)=O)C(=O)[*:2]; Phe(4-COOH) = N[C@@H](Cc1ccc(C(=O)O)cc1)C(=O)O; Bip = N[C@@H](Cc1ccc(-c2ccccc2)cc1)C(=O)O; dPhe(4-NH2) = Nc1ccc(C[C@@H](N)C(=O)O)cc1; Phe(4-Br) = N[C@@H](Cc1ccc(Br)cc1)C(=O)O; Phe(4-NH2) = Nc1ccc(C[C@H](N)C(=O)O)cc1; d(hPhe) = N[C@H](CCc1ccccc1)C(=O)O; Suc = O=C(CCC(=O)[*:2])[*:1]; GABA = NCCCC(=O)O
In this section we review reported pIC50 values for a set of molecules.

Q) Give me measured pIC50, please, for this molecule: O=C(O)CCCNC(=O)[C@@H]1Cc2ccc(cc2)C(=O)N[C@H](CCc2ccccc2)C(=O)N[C@@H](Cc2ccc(-c3ccccc3)cc2)C(=O)N[C@H](Cc2ccccc2)C(=O)N1 [Compound 425] ([d(hPhe)][Bip][dF][Phe(4-COOH)][GABA]-OH; lactam N-4)
A) 4.00 to 4.52

Q) Give me measured pIC50, please, for this molecule: O=C1COc2ccc(cc2)C[C@@H](C(=O)O)NC(=O)[C@H](Cc2ccccc2)NC(=O)[C@H](Cc2ccc(-c3ccc(NC(=O)OCc4ccccc4)cc3)cc2)NC(=O)[C@H](Cc2cccs2)N1 [Compound 362]
A) > 5.00

Q) Give me measured pIC50, please, for this molecule: O=C1CCC(=O)N[C@H](Cc2c[nH]c3ccccc23)C(=O)N[C@@H](Cc2ccc(-c3ccccc3)cc2)C(=O)N[C@H](Cc2ccccc2)C(=O)N[C@H](C(=O)O)Cc2ccc(cc2)N1 [Compound 125] ([dW][Bip][dF][Phe(4-NH2)]-OH; linker N-4 via Suc)
A) < 4.00

Q) Give me measured pIC50, please, for this molecule: CC(=O)O[C@H]1C(=O)Nc2ccc(cc2)C[C@H](C(=O)O)NC(=O)[C@@H](Cc2ccccc2)NC(=O)[C@H](Cc2ccc(Br)cc2)NC(=O)[C@@H](Cc2ccccc2)NC(=O)[C@@H]1OC(C)=O [Compound 231] ([dF][Phe(4-Br)][dF][dPhe(4-NH2)]-OH; linker N-4 via Tartaroyl(2R,3R-(OAc)2))
A) < 4.00
